This collection of values is drawn from the supplement of paper PMC10307832.

- System: NCI-H1793
- TEST PROTOCOL: relative viability (nuclei count vs DMSO), 5 days (fraction); higher = more cells survive
- ASSAY SETUP: first compound 0.253 µM
READOUT NAME: relative viability

The following compounds have reported results that may help.
COMPOUND: O=c1cc(-c2cccc3c2Sc2ccccc2S3)oc(N2CCOCC2)c1 + Nc1nc2[nH]cc(CCc3ccc(C(=O)N[C@@H](CCC(=O)O)C(=O)O)cc3)c2c(=O)[nH]1 [Pemetrexed] (partner 0.2 µM)
MEASURED VALUE: 1.04

COMPOUND: O=c1cc(-c2cccc3c2Sc2ccccc2S3)oc(N2CCOCC2)c1 + N=C(N)NC(=N)NCCc1ccccc1 [Phenformin] (partner 250 µM)
MEASURED VALUE: 0.398

COMPOUND: COc1nc(C)cnc1NS(=O)(=O)c1cccnc1-c1ccc(-c2nnco2)cc1 [Zibotentan] + CCNC(=O)c1noc(-c2cc(C(C)C)c(O)cc2O)c1-c1ccc(CN2CCOCC2)cc1 [Luminespib] (partner 0.01 µM)
MEASURED VALUE: 0.169

COMPOUND: COc1nc(C)cnc1NS(=O)(=O)c1cccnc1-c1ccc(-c2nnco2)cc1 [Zibotentan] + COc1cc2c(Oc3ccc(NC(=O)C4(C(=O)Nc5ccc(F)cc5)CC4)cc3F)ccnc2cc1OCCCN1CCOCC1 [Foretinib] (partner 0.25 µM)
MEASURED VALUE: 0.721

Read the next record carefully.
What relative viability value was documented for this compound, COc1nc(C)cnc1NS(=O)(=O)c1cccnc1-c1ccc(-c2nnco2)cc1 [Zibotentan] + Cc1nc(Nc2ncc(C(=O)Nc3c(C)cccc3Cl)s2)cc(N2CCN(CCO)CC2)n1 [Dasatinib] (partner 0.075 µM) ?
0.363

###

- Tested on: NCI-H1437
- TEST PROTOCOL: relative viability (nuclei count vs DMSO), 5 days (fraction); higher = more cells survive
- ASSAY SETUP: first compound 0.08 µM
List of relative viability values.

COMPOUND: O=c1cc(-c2cccc3c2Sc2ccccc2S3)oc(N2CCOCC2)c1 + CS(=O)(=O)CCNCc1ccc(-c2ccc3ncnc(Nc4ccc(OCc5cccc(F)c5)c(Cl)c4)c3c2)o1 [Lapatinib] (partner 2 µM)
relative viability: 0.782

What relative viability value was documented for this compound, COc1nc(C)cnc1NS(=O)(=O)c1cccnc1-c1ccc(-c2nnco2)cc1 [Zibotentan] + O=C(CCCCCCC(=O)Nc1ccccc1)NO [Vorinostat] (partner 1 µM) ?
1.05

###

List of relative viability values.
- Tested on: NCI-H1975
- TEST PROTOCOL: relative viability (nuclei count vs DMSO), 5 days (fraction); higher = more cells survive
- ASSAY SETUP: first compound 0.8 µM
No unit in the answer, only the number.

COMPOUND: O=c1cc(-c2cccc3c2Sc2ccccc2S3)oc(N2CCOCC2)c1 + Cc1nc(Nc2ncc(C(=O)Nc3c(C)cccc3Cl)s2)cc(N2CCN(CCO)CC2)n1 [Dasatinib] (partner 0.075 µM)
relative viability: 0.219
--
COMPOUND: COc1nc(C)cnc1NS(=O)(=O)c1cccnc1-c1ccc(-c2nnco2)cc1 [Zibotentan] + Nc1nc2[nH]cc(CCc3ccc(C(=O)N[C@@H](CCC(=O)O)C(=O)O)cc3)c2c(=O)[nH]1 [Pemetrexed] (partner 0.2 µM)
relative viability: 0.289
--
COMPOUND: O=c1cc(-c2cccc3c2Sc2ccccc2S3)oc(N2CCOCC2)c1 + C[C@]1(O)C[C@@H](c2nc(-c3ccc4ccc(-c5ccccc5)nc4c3)c3c(N)nccn32)C1 [Linsitinib] (partner 1 µM)
relative viability: 0.807

What relative viability value was documented for this compound, COc1nc(C)cnc1NS(=O)(=O)c1cccnc1-c1ccc(-c2nnco2)cc1 [Zibotentan] + C[C@@H](Oc1cc(-c2cnn(C3CCNCC3)c2)cnc1N)c1c(Cl)ccc(F)c1Cl [Crizotinib] (partner 1 µM) ?
0.837

What relative viability value was documented for this compound, COc1nc(C)cnc1NS(=O)(=O)c1cccnc1-c1ccc(-c2nnco2)cc1 [Zibotentan] + CS(=O)(=O)N1CCN(Cc2cc3nc(-c4cccc5[nH]ncc45)nc(N4CCOCC4)c3s2)CC1 [Pictilisib] (partner 1 µM) ?
0.293

What relative viability value was documented for this compound, COc1nc(C)cnc1NS(=O)(=O)c1cccnc1-c1ccc(-c2nnco2)cc1 [Zibotentan] + Cc1cc(Nc2cc(N3CCN(C)CC3)nc(Sc3ccc(NC(=O)C4CC4)cc3)n2)n[nH]1 [Tozasertib] (partner 0.1 µM) ?
0.727
